Biological target: MAO-B (Rattus norvegicus, UniProt P19643)
Construct: The crude enzyme was extracted from the liver of 200–250 g of Wistar rats; from tissue; host or cells: liver of Wistar rats (crude enzyme)
Experiment: In vitro MAO inhibitory activity (Holt method, crude enzyme from rat liver)
Assay type: biochemical, Wistar rat
Settings: rat liver crude enzyme, 4-(trifluoromethyl)benzylamine substrate, mean ± SD (n = 3); read-out: IC50 value MAO-B inhibitory activity
Description: The MAO inhibitory activity of the 3-arylbenzofuranone compounds was determined by the method of Holt et al.[17] with slight modifications. […] The crude enzyme protein content was determined by the Bradford method using a Bradford Protein Assay Kit (Beyotime). […] The absorbance was measured at 490 nm using a microplate reader, and the inhibition rate of MAO and the IC50 value of each sample were calculated according to the formula. […]
quantity name: pIC50
Give bare numbers, as −log10 of the molar value.

COc1cc(C2C(=O)Oc3c2ccc(O)c3O)cc(OC)c1OC (centres unmarked); 3.83

For each of the molecules below, note its pIC50.
1. COc1ccc(C2C(=O)Oc3ccc(OC)cc32)cc1 (centres unmarked)
2. COc1ccc(C2C(=O)Oc3cc(OC)ccc32)cc1 (centres unmarked)
3. COc1ccc(C2C(=O)Oc3c2ccc(O)c3O)cc1 (centres unmarked)

Marked response:
1: 3.42; 2: 3.53; 3: 4.65

* * *

Biological target: UniProtKB O42275
Sequence (O42275 24-633): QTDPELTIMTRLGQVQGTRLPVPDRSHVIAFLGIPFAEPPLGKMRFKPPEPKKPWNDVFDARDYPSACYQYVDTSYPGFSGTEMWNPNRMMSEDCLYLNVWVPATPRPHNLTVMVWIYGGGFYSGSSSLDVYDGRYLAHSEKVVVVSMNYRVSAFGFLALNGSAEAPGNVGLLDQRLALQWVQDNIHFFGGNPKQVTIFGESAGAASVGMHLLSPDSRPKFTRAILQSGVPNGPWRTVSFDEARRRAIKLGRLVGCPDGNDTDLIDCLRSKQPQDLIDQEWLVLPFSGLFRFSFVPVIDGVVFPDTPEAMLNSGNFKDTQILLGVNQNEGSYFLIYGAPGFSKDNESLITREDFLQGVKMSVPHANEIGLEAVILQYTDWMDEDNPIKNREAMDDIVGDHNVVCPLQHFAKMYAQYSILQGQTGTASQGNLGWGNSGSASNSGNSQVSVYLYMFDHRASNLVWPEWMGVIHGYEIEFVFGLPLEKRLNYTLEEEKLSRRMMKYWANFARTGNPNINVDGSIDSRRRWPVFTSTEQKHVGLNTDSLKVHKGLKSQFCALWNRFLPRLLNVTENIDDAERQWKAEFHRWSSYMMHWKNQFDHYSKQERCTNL
Test: biochemical
Format: biochemical
Settings: Ellman method, mean ± SD (n = 3), read-out: IC50 value AChE inhibitory activity
quantity name: IC50

Reference set, count: 2
COc1cc(C2C(=O)Oc3ccc(O)cc32)cc(OC)c1OC (stereo not drawn) [Compound 14]; 3.37 µM
COc1cc(C2C(=O)Oc3c2ccc(O)c3O)cc(OC)c1OC (stereo not drawn) [Compound 20]; 0.089 µM

Here is the next item to consider.
Exam item: Item under review: COc1ccc(C2C(=O)Oc3cc(O)ccc32)cc1OC (stereo not drawn) [Compound 6] . Reported IC50?
Marked response: 24.4 µM

* * *

Target: MAO-B (Rattus norvegicus)
Construct: The crude enzyme was extracted from the liver of 200–250 g of Wistar rats; from tissue; host or cells: liver of Wistar rats (crude enzyme)
Sequence (P19643 1-520): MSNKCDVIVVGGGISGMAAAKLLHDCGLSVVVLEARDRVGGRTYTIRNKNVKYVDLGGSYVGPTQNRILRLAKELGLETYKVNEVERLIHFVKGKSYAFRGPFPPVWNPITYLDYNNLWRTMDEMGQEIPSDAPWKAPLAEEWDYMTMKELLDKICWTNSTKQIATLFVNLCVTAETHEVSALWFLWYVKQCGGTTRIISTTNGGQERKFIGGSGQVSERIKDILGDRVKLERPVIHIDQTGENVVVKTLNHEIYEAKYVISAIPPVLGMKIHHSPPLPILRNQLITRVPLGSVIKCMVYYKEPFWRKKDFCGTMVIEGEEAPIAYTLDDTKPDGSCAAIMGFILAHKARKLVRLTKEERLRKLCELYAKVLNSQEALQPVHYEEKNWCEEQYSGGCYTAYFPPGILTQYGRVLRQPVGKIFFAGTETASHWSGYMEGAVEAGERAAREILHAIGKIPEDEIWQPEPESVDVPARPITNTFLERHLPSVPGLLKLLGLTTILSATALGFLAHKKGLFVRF
Experiment: In vitro MAO inhibitory activity (Holt method, crude enzyme from rat liver)
Format: biochemical, Wistar rat
Conditions: rat liver crude enzyme, 4-(trifluoromethyl)benzylamine substrate, mean ± SD (n = 3); read-out: IC50 value MAO-B inhibitory activity
pIC50: −log10 of the molar value.
Record 1.0 whenever pIC50 is at 4 or higher; record 0.0 when lower.

COc1ccc(C2C(=O)Oc3c2ccc(OC)c3O)cc1OC (stereo not shown) [Compound 12]; 1.0
COc1ccc(C2C(=O)Oc3cc(O)ccc32)cc1OC (stereo not shown) [Compound 6]; 1.0
COc1ccc2c(c1O)OC(=O)C2c1cc(OC)c(OC)c(OC)c1 (stereo not shown) [Compound 22]; 1.0
COc1cc(C2C(=O)Oc3ccc(O)cc32)cc(OC)c1OC (stereo not shown) [Compound 14]; 1.0
COc1ccc(C2C(=O)Oc3cc(OC)c(OC)cc32)cc1 (stereo not shown) [Compound 10]; 0.0
COc1cc2c(cc1O)C(c1cc(OC)c(OC)c(OC)c1)C(=O)O2 (stereo not shown) [Compound 21]; 0.0

In the following, a different compound is considered.
Exam item: // inclusive: pIC50 at least 4? input: COc1cc2c(cc1O)C(c1ccc(OC)c(OC)c1)C(=O)O2 (stereo not shown) [Compound 13]
Marked response: 1.0
